So I've got a bunch of molecules here, and I need their Ki values.
Biological target: human σ1 receptor (Homo sapiens)
Sequence (Q99720 whole entry): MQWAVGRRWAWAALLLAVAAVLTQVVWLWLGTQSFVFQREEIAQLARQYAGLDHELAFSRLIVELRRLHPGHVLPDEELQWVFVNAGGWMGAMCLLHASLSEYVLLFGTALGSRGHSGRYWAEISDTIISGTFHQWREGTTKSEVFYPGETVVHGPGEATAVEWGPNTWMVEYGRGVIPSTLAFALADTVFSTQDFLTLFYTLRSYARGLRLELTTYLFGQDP
Experiment: biochemical
Conditions: combined class from Ki at human σ1 receptor (A1) and Ki at human μ-opioid receptor (A2); radioligand binding; read-out: μ and σ1 dual binding
Where a name gives a salt, the structure may show the parent alone.

Request: For the molecule shown here, "Nc1cccc(CCN2CCC3(CC2)CN(C(=O)c2ccccc2)CCO3)c1" , give the reported Ki.
Response: > 500 nM

Request: I would be grateful if you could share the reported Ki for CC1CN(C(=O)c2cccc(F)c2F)CC2(CCN(CCc3ncccc3F)CC2)O1 (stereo not drawn) .
Response: > 500 nM

Request: Would you mind telling me what Ki value was observed for CC1CN(C(=O)c2ccccc2)CC2(CCN(CC(=O)N3CCCCC3)CC2)O1 (stereo not drawn) [Example 90, hydrochloride] ?
Response: > 500 nM

Request: Which Ki is listed for CC1CN(C(=O)c2ccccc2)CC2(CCN(CCc3ccc(S(N)(=O)=O)cc3)CC2)O1 (stereo not drawn) ?
Response: > 500 nM

Request: Fill blank: measured Ki of the molecule CC1CN(C(=O)c2ccccc2F)CC2(CCN(CCc3ncccc3F)CC2)O1 (stereo not drawn) [Example 59, dihydrochloride] is ____.
Response: > 500 nM

Could you tell me Ki for each of these molecules? They are listed below.
1. O=C(c1ccccc1)N1CCOC2(CCN(CCc3cccnc3)CC2)C1 [Example 71, dihydrochloride]
2. O=C(c1ccccc1)N1CCOC2(CCN(CCc3cccc([N+](=O)[O-])c3)CC2)C1
3. CC1CN(C(=O)c2ccc(Cl)cn2)CC2(CCN(CCc3csc(NC(=O)OC(C)(C)C)n3)CC2)O1 (stereo not drawn)
4. CC1CN(C(=O)c2cccc(F)c2)CC2(CCN(CCc3ncccc3F)CC2)O1 (stereo not drawn)

Response:
["> 500 nM", "> 500 nM", "> 500 nM", "> 500 nM"]
